- Tested on: Aspergillus
- Test Description: Antimicrobial activity against Aspergillus spp. by broth microdilution method
- Format: functional
*1 amine or outer side, *2 acyl side, *3 side chain or, on linkers, in order; H or OH if unused. Where a SMILES comes first, the peptide text is derived from it. Bridges are numbered along the chain shown (N, C = ends). [ ]: non-standard residue; d: D form. The star is where a group is joined. hTyr(3S-OH,4S-OH,3'-OSO3H) = N[C@H](C(=O)O)[C@H](O)[C@@H](O)c1ccc(O)c(OS(=O)(=O)O)c1; Orn(4R-OH,5R-OH) = O=C([C@H](C[C@@H](O)[C@@H](O)N[*:3])N[*:1])[*:2]; Pro(3S-OH,4S-Me) = C[C@H]1CN[C@H](C(=O)O)[C@H]1O; X1 = CCCCCOc1ccc(-c2cc(-c3ccc(C(=O)*)cc3)no2)cc1; Gln(3R-OH) = NC(=O)C[C@@H](O)[C@H](N)C(=O)O; Hyp = O=C(O)[C@@H]1C[C@@H](O)CN1
Value Type: MIC90

Query: Look up and state reported MIC90 for CC[C@@H]([C@H](C)O)n1ncn(-c2ccc(N3CCN(c4ccc(OC[C@@H]5CO[C@@](Cn6cncn6)(c6ccc(F)cc6F)C5)cc4)CC3)cc2)c1=O
Reply: > 8 µg/mL

Query: Look up and state reported MIC90 for C[C@@H]1[C@H](O)[C@@H](C)/C=C/C=C/C=C/C=C/C=C/C=C/C=C/[C@H](O[C@@H]2O[C@H](C)[C@@H](O)[C@H](N)[C@@H]2O)C[C@@H]2O[C@](O)(C[C@@H](O)C[C@@H](O)[C@H](O)CC[C@@H](O)C[C@@H](O)CC(=O)O[C@H]1C)C[C@H](O)[C@H]2C(=O)O
Reply: > 16 µg/mL

Query: Look up and state reported MIC90 for CCCCCOc1ccc(-c2cc(-c3ccc(C(=O)N[C@H]4C[C@@H](O)[C@@H](O)NC(=O)[C@@H]5[C@@H](O)[C@@H](C)CN5C(=O)[C@H]([C@H](O)CC(N)=O)NC(=O)[C@H]([C@H](O)[C@@H](O)c5ccc(O)c(OS(=O)(=O)O)c5)NC(=O)[C@@H]5C[C@@H](O)CN5C(=O)[C@H]([C@@H](C)O)NC4=O)cc3)no2)cc1 [MICAFUNGIN] (X1-[Orn(4R-OH,5R-OH)]T[Hyp][hTyr(3S-OH,4S-OH,3'-OSO3H)][Gln(3R-OH)][Pro(3S-OH,4S-Me)]; lactam 1-C)
Reply: 0.25 µg/mL

Query: Look up and state reported MIC90 for CCC(C)n1ncn(-c2ccc(N3CCN(c4ccc(OCC5COC(Cn6cncn6)(c6ccc(Cl)cc6Cl)O5)cc4)CC3)cc2)c1=O (centres undefined)
Reply: > 8 µg/mL

---

- System: Aspergillus flavus
- Test Description: Antimicrobial activity against Aspergillus flavus by broth microdilution method
- Type: functional
Please respond with reported MIC50 for every item in the list.
Write it as a number; the unit µg/mL goes unstated.

Query: Look up and state reported MIC50 for C[C@@H]1[C@H](O)[C@@H](C)/C=C/C=C/C=C/C=C/C=C/C=C/C=C/[C@H](O[C@@H]2O[C@H](C)[C@@H](O)[C@H](N)[C@@H]2O)C[C@@H]2O[C@](O)(C[C@@H](O)C[C@@H](O)[C@H](O)CC[C@@H](O)C[C@@H](O)CC(=O)O[C@H]1C)C[C@H](O)[C@H]2C(=O)O
Reply: 1

Query: Look up and state reported MIC50 for CCC(C)n1ncn(-c2ccc(N3CCN(c4ccc(OCC5COC(Cn6cncn6)(c6ccc(Cl)cc6Cl)O5)cc4)CC3)cc2)c1=O (stereo not drawn)
Reply: 0.25

---

- Tested on: Trichosporon ovoides
- Test Description: Antimicrobial activity against Trichosporon ovoides by broth microdilution method
- Type: functional
Value Type: MIC50 (mg/L)
Write it as a number; the unit mg/L goes unstated.

Query: State, for Trichosporon ovoides, measured MIC50 of the molecule listed here: C[C@@H](c1ncncc1F)[C@](O)(Cn1cncn1)c1ccc(F)cc1F [VORICONAZOLE]
Reply: 0.5

Query: State, for Trichosporon ovoides, measured MIC50 of the molecule listed here: Nc1nc(=O)[nH]cc1F [FLUCYTOSINE]
Reply: 16

Query: State, for Trichosporon ovoides, measured MIC50 of the molecule listed here: C[C@@H]1[C@H](O)[C@@H](C)/C=C/C=C/C=C/C=C/C=C/C=C/C=C/[C@H](O[C@@H]2O[C@H](C)[C@@H](O)[C@H](N)[C@@H]2O)C[C@@H]2O[C@](O)(C[C@@H](O)C[C@@H](O)[C@H](O)CC[C@@H](O)C[C@@H](O)CC(=O)O[C@H]1C)C[C@H](O)[C@H]2C(=O)O [AMPHOTERICIN B]
Reply: 0.5

---

- Test system: Fusarium proliferatum
- Test Description: Antimicrobial activity against Fusarium proliferatum by broth microdilution method
- Assay type: functional
*1 amine or outer side, *2 acyl side, *3 side chain or, on linkers, in order; H or OH if unused. Where a SMILES comes first, the peptide text is derived from it. Bridges are numbered along the chain shown (N, C = ends). [ ]: non-standard residue; d: D form. The star is where a group is joined. hTyr(3S-OH,4S-OH,3'-OSO3H) = N[C@H](C(=O)O)[C@H](O)[C@@H](O)c1ccc(O)c(OS(=O)(=O)O)c1; pTerphenylCO(4''-OnC5H11) = CCCCCOc1ccc(-c2ccc(-c3ccc(C(=O)*)cc3)cc2)cc1; Orn(4R-OH,5R-OH) = O=C([C@H](C[C@@H](O)[C@@H](O)N[*:3])N[*:1])[*:2]; hTyr(3S-OH,4S-OH) = N[C@H](C(=O)O)[C@H](O)[C@@H](O)c1ccc(O)cc1; Pro(3S-OH,4S-Me) = C[C@H]1CN[C@H](C(=O)O)[C@H]1O; X1 = CCCCCOc1ccc(-c2cc(-c3ccc(C(=O)*)cc3)no2)cc1; Gln(3R-OH) = NC(=O)C[C@@H](O)[C@H](N)C(=O)O; Hyp = O=C(O)[C@@H]1C[C@@H](O)CN1
Please respond with reported MIC50 for every item in the list.

Query: Look up and state reported MIC50 for CCCCCOc1ccc(-c2ccc(-c3ccc(C(=O)N[C@H]4C[C@@H](O)[C@@H](O)NC(=O)[C@@H]5[C@@H](O)[C@@H](C)CN5C(=O)[C@H]([C@@H](C)O)NC(=O)[C@H]([C@H](O)[C@@H](O)c5ccc(O)cc5)NC(=O)[C@@H]5C[C@@H](O)CN5C(=O)[C@H]([C@@H](C)O)NC4=O)cc3)cc2)cc1 [ANIDULAFUNGIN] ({pTerphenylCO(4''-OnC5H11)}-[Orn(4R-OH,5R-OH)]T[Hyp][hTyr(3S-OH,4S-OH)]T[Pro(3S-OH,4S-Me)]; lactam 1-C)
Reply: > 16 µg/mL

Query: Look up and state reported MIC50 for CC[C@@H]([C@H](C)O)n1ncn(-c2ccc(N3CCN(c4ccc(OC[C@@H]5CO[C@@](Cn6cncn6)(c6ccc(F)cc6F)C5)cc4)CC3)cc2)c1=O
Reply: > 8 µg/mL

Query: Look up and state reported MIC50 for CCCCCOc1ccc(-c2cc(-c3ccc(C(=O)N[C@H]4C[C@@H](O)[C@@H](O)NC(=O)[C@@H]5[C@@H](O)[C@@H](C)CN5C(=O)[C@H]([C@H](O)CC(N)=O)NC(=O)[C@H]([C@H](O)[C@@H](O)c5ccc(O)c(OS(=O)(=O)O)c5)NC(=O)[C@@H]5C[C@@H](O)CN5C(=O)[C@H]([C@@H](C)O)NC4=O)cc3)no2)cc1 [MICAFUNGIN] (X1-[Orn(4R-OH,5R-OH)]T[Hyp][hTyr(3S-OH,4S-OH,3'-OSO3H)][Gln(3R-OH)][Pro(3S-OH,4S-Me)]; lactam 1-C)
Reply: > 16 µg/mL

---

- Test system: Magnusiomyces capitatus
- Test Description: Antimicrobial activity against Dipodascus capitatus by broth microdilution method
- Type: functional
Please respond with reported MIC50 for every item in the list.
Write it as a number; the unit µg/mL goes unstated.

Query: Look up and state reported MIC50 for CC[C@@H]([C@H](C)O)n1ncn(-c2ccc(N3CCN(c4ccc(OC[C@@H]5CO[C@@](Cn6cncn6)(c6ccc(F)cc6F)C5)cc4)CC3)cc2)c1=O [POSACONAZOLE]
Reply: 0.5

Query: Look up and state reported MIC50 for Nc1nc(=O)[nH]cc1F [FLUCYTOSINE]
Reply: 0.12

Query: Look up and state reported MIC50 for C[C@@H](c1ncncc1F)[C@](O)(Cn1cncn1)c1ccc(F)cc1F [VORICONAZOLE]
Reply: 0.5

---

Please respond with reported MIC90 for every item in the list.
- System: Pichia kudriavzevii
- Test Description: Antimicrobial activity against Candida krusei by broth microdilution method
- Assay type: functional
*1 amine or outer side, *2 acyl side, *3 side chain or, on linkers, in order; H or OH if unused. Where a SMILES comes first, the peptide text is derived from it. Bridges are numbered along the chain shown (N, C = ends). [ ]: non-standard residue; d: D form. The star is where a group is joined. pTerphenylCO(4''-OnC5H11) = CCCCCOc1ccc(-c2ccc(-c3ccc(C(=O)*)cc3)cc2)cc1; Orn(4R-OH,5R-OH) = O=C([C@H](C[C@@H](O)[C@@H](O)N[*:3])N[*:1])[*:2]; hTyr(3S-OH,4S-OH) = N[C@H](C(=O)O)[C@H](O)[C@@H](O)c1ccc(O)cc1; Pro(3S-OH,4S-Me) = C[C@H]1CN[C@H](C(=O)O)[C@H]1O; Hyp = O=C(O)[C@@H]1C[C@@H](O)CN1
Write it as a number; the unit µg/mL goes unstated.

Query: Look up and state reported MIC90 for CC[C@@H]([C@H](C)O)n1ncn(-c2ccc(N3CCN(c4ccc(OC[C@@H]5CO[C@@](Cn6cncn6)(c6ccc(F)cc6F)C5)cc4)CC3)cc2)c1=O [POSACONAZOLE]
Reply: 0.25

Query: Look up and state reported MIC90 for C[C@@H]1[C@H](O)[C@@H](C)/C=C/C=C/C=C/C=C/C=C/C=C/C=C/[C@H](O[C@@H]2O[C@H](C)[C@@H](O)[C@H](N)[C@@H]2O)C[C@@H]2O[C@](O)(C[C@@H](O)C[C@@H](O)[C@H](O)CC[C@@H](O)C[C@@H](O)CC(=O)O[C@H]1C)C[C@H](O)[C@H]2C(=O)O [AMPHOTERICIN B]
Reply: 0.5

Query: Look up and state reported MIC90 for CCCCCOc1ccc(-c2ccc(-c3ccc(C(=O)N[C@H]4C[C@@H](O)[C@@H](O)NC(=O)[C@@H]5[C@@H](O)[C@@H](C)CN5C(=O)[C@H]([C@@H](C)O)NC(=O)[C@H]([C@H](O)[C@@H](O)c5ccc(O)cc5)NC(=O)[C@@H]5C[C@@H](O)CN5C(=O)[C@H]([C@@H](C)O)NC4=O)cc3)cc2)cc1 [ANIDULAFUNGIN] ({pTerphenylCO(4''-OnC5H11)}-[Orn(4R-OH,5R-OH)]T[Hyp][hTyr(3S-OH,4S-OH)]T[Pro(3S-OH,4S-Me)]; lactam 1-C)
Reply: 0.06
